Origin of values: patent US20240109917A1

- TEST_TARGET: PDGFRβ (Rattus norvegicus (Rat))
- Sequence (Q05030 32-1097): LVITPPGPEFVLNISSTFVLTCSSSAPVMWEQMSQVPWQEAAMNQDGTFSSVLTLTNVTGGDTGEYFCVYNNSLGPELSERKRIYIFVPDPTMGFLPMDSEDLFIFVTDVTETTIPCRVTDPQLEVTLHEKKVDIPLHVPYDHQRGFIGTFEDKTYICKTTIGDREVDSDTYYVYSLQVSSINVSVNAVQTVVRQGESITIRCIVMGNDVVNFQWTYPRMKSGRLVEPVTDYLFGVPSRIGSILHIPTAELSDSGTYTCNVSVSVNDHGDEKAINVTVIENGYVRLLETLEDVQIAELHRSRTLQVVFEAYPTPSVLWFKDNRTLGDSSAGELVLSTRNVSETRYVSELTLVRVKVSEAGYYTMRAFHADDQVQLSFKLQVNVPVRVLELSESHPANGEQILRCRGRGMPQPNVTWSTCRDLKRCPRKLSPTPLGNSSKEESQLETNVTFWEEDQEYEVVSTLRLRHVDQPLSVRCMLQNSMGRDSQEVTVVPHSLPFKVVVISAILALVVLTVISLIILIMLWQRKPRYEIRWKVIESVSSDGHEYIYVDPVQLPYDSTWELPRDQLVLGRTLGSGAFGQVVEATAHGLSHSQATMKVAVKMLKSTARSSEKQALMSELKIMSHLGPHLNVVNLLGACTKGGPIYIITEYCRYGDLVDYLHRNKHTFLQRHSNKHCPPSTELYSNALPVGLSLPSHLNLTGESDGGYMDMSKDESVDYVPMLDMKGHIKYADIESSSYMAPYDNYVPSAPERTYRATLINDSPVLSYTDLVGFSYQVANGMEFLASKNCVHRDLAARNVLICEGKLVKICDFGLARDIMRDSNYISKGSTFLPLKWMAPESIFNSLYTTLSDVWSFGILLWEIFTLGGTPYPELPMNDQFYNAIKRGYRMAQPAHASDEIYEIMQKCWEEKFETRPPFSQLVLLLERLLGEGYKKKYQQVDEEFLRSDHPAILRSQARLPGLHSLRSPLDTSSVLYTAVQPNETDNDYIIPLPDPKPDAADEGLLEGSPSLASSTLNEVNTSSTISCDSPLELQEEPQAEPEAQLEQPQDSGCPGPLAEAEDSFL
- ASSAY_SUMMARY: PDGFRβ Cellular Assay (PDGFRb P-Y751 HTRF in A10 cells stimulated with PDGF-BB)
- Assay type: cell-based
- MEASUREMENT_SETUP: read-out: PDGFR Cellular IC50
pIC50: −log10 of the molar value.
I would appreciate it if you labelled entries Met when pIC50 is 8 or higher, otherwise Not met.

Some solved entries appear below for comparison.
# MOLECULE, TEST_TARGET, CLASS_ASSIGNMENT
rows = [
    ("Cc1ncc(NC(=O)OC[C@@H]2CCCN2C(C)C)cc1NC(=O)c1cnn2cc(-c3cnn(C)c3)sc12", "PDGFRβ (Rattus norvegicus (Rat))", "Not met"),
    ("Cc1ncc(C(=O)NCCN2CCOCC23CC3)cc1NC(=O)c1cnn2cc(-c3cnn(C)c3)sc12", "PDGFRβ (Rattus norvegicus (Rat))", "Not met"),
    ("Cc1ncc(NC(=O)C2CCN(C(C)C)C2)cc1NC(=O)c1cnn2cc(-c3cn(C)nc3C)sc12 (stereo not drawn)", "PDGFRβ (Rattus norvegicus (Rat))", "Not met"),
    ("COc1ncccc1-c1cn2ncc(C(=O)Nc3cc(NC(=O)CN4CC5(CCOCC5)C4)cnc3C)c2s1", "PDGFRβ (Rattus norvegicus (Rat))", "Met"),
    ("Cn1cc(-c2cn3ncc(C(=O)Nc4cc(C(=O)NCCN5CCCC5(C)C)ccc4F)c3s2)cn1", "PDGFRβ (Rattus norvegicus (Rat))", "Met"),
]

Answer whether pIC50 of "Cc1ncc(C(=O)NCCN2C[C@H]3CC[C@@H]2C3)cc1NC(=O)c1cnn2cc(-c3cnn(C)c3C)sc12" is greater than or equal to 8.
Not met

Answer whether pIC50 of "Cc1ncc(NC(=O)OCCN2CCCC2)cc1NC(=O)c1cnn2cc(-c3cnn(C)c3)sc12" is greater than or equal to 8.
Not met

Answer whether pIC50 of "COCCn1cc(-c2cn3ncc(C(=O)Nc4cc(NC(=O)C[C@H]5CCN(C(C)C)C5)cnc4C)c3s2)cn1" is greater than or equal to 8.
Not met

Answer whether pIC50 of "Cc1ncc(NC(=O)CN2CCC23CCC3)cc1NC(=O)c1cnn2cc(-c3cnn4c3OCCC4)sc12" is greater than or equal to 8.
Met

* * *

- TEST_TARGET: PDGFRβ (Rattus norvegicus (Rat))
- ASSAY_SUMMARY: PDGFRβ Cellular Assay (PDGFRb P-Y751 HTRF in A10 cells stimulated with PDGF-BB)
- Format: cell-based
- MEASUREMENT_SETUP: read-out: PDGFR Cellular IC50
pIC50: −log10 of the molar value.
I would appreciate it if you labelled entries True when pIC50 is 7 or higher, otherwise False.

Some solved entries appear below for comparison.
# COMPOUND, CLASS_ASSIGNMENT
measured = [
    ("Cc1ncc(C(=O)NC2CN(C(C)(C)C)C2)cc1NC(=O)c1cnn2cc(-c3cccc4c3cnn4C)sc12", "False"),
    ("Cc1ncc(NC(=O)C[C@@H]2CCN(C(C)C)C2)cc1NC(=O)c1cnn2cc(-c3cnn(C)c3)sc12", "False"),
    ("Cc1ncc(NC(=O)CNC2(C)CCC2)cc1NC(=O)c1cnn2cc(-c3cnn4c3OCCC4)sc12", "True"),
    ("Cc1ncc(NC(=O)CN2CCO[C@H](C)C2)cc1NC(=O)c1cnn2cc(-c3cnn(C)c3)sc12", "True"),
]

Next up:
Answer whether pIC50 of Cc1ncc(NC(=O)OCCN2CC3CCC2C3)cc1NC(=O)c1cnn2cc(-c3cnn(C)c3)sc12 (stereo not shown) is greater than or equal to 7.
False

* * *

The following compounds are listed with their measured IC50 values.
- TEST_TARGET: VEGFR2, unphosphorylated (Homo sapiens (Human), UniProt P35968)
- Sequence (P35968 20-1356): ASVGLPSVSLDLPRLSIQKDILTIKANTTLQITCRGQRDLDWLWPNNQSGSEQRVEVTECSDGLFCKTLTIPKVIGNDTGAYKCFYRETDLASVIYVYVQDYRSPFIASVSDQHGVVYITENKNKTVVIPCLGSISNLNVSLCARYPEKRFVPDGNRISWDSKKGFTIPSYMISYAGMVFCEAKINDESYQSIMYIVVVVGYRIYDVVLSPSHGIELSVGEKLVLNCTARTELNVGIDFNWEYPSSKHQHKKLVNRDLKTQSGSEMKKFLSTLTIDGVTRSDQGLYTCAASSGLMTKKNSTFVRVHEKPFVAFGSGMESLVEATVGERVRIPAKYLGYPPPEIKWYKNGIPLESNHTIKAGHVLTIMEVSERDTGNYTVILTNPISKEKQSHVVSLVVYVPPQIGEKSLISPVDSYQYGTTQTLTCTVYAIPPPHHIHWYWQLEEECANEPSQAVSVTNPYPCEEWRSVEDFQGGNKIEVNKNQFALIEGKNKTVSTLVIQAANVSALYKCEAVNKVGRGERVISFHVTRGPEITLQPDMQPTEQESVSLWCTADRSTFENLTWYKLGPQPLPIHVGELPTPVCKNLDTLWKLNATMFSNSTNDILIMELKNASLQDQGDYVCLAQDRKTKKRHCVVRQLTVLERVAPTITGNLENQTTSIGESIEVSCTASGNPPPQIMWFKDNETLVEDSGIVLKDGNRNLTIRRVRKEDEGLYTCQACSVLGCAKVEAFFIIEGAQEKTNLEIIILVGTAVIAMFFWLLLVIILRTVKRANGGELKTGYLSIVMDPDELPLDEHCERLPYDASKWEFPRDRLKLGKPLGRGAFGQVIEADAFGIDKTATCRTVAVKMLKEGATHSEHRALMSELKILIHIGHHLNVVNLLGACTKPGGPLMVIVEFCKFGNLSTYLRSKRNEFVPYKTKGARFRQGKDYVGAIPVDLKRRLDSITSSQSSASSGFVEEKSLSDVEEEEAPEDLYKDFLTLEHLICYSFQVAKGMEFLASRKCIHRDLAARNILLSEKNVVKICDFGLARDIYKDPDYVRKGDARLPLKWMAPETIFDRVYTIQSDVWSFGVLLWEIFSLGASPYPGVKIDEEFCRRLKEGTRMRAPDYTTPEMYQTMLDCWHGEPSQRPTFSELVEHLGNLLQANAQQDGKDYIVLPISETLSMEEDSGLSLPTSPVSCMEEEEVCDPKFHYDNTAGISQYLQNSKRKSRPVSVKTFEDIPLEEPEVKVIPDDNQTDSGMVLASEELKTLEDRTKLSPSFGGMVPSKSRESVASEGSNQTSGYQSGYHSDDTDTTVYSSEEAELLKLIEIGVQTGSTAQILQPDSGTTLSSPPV
- ASSAY_SUMMARY: VEGFR ADP GLO Assay

Illustrative cases are given below, each with its answer.
# COMPOUND, IC50
measured = [
    ("Cc1ncc(NC(=O)CN2CC(C)(C)C2)cc1NC(=O)c1cnn2cc(-c3cn[nH]c3)sc12 [Example 271]", "5.93 µM"),
    ("Cc1ncc(C(=O)NCCN2CC3CCC2CC3)cc1NC(=O)c1cnn2cc(-c3cnn(CC(N)=O)c3)sc12 [Example 150]", "> 7.5 µM"),
    ("COCCn1cc(-c2cn3ncc(C(=O)Nc4cc(NC(=O)CN5CCCCCC5)cnc4C)c3s2)cn1 [Example 339]", "> 7.5 µM"),
]

Now for a further compound.
State its IC50 for this compound: COc1ncccc1-c1cn2ncc(C(=O)Nc3cc(NC(=O)OCC(C)N4CCCC4)cnc3C)c2s1 (stereo not shown) [Example 255]
> 7.5 µM

* * *

- TEST_TARGET: Tb-labeled inactive PDGFRβ (Homo sapiens (Human), UniProt P09619)
- Sequence (P09619 33-1106): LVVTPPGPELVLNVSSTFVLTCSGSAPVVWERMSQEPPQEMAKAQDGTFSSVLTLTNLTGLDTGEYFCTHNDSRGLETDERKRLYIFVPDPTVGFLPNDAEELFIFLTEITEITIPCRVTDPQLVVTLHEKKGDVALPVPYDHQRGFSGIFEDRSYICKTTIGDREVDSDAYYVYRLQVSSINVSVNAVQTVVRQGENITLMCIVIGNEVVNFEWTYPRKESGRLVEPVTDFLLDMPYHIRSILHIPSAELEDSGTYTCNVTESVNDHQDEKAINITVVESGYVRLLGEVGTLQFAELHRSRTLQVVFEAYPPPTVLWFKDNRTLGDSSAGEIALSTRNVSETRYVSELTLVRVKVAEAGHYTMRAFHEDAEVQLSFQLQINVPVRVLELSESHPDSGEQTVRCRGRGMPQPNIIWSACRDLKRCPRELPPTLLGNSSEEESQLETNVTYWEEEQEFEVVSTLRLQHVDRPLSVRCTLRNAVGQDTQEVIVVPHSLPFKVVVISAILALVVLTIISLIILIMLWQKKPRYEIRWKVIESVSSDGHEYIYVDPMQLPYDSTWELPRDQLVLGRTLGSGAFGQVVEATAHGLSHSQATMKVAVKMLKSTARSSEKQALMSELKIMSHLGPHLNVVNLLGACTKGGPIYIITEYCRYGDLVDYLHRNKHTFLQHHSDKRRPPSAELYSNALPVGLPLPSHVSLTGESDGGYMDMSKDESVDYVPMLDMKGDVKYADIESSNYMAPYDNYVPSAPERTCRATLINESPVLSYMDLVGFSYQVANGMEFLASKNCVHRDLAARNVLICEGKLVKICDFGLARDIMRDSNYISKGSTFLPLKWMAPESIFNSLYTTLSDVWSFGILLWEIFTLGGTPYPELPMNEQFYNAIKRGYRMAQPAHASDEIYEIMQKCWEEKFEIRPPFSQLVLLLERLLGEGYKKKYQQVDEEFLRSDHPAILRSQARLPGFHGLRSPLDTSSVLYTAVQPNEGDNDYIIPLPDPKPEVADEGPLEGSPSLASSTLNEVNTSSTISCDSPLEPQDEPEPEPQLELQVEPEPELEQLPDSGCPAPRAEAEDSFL
- ASSAY_SUMMARY: PDGFRβ LanthaScreen Assay
- Assay type: binding
- MEASUREMENT_SETUP: read-out: PDGFR Lantha IC50
Friendly reminder: IC50 below 10 nM is rule met, at or above is rule not met.

# MOLECULE, TEST_TARGET, CLASS_ASSIGNMENT
data = [
    ("COc1ncccc1-c1cn2ncc(C(=O)Nc3cc(NC(=O)CN4CCCC4(C)C)cnc3C)c2s1 [Example 233]", "Tb-labeled inactive PDGFRβ (Homo sapiens (Human), UniProt P09619)", "rule met"),
    ("Cc1ncc(NC(=O)CN2CCCC23CCC3)cc1NC(=O)c1cnn2cc(-c3cnn(CCO)c3)sc12 [Example 29]", "Tb-labeled inactive PDGFRβ (Homo sapiens (Human), UniProt P09619)", "rule met"),
    ("Cc1ncc(NC(=O)C2CCN(C(C)C)C2)cc1NC(=O)c1cnn2cc(-c3cn(C)nc3C)sc12 (stereo not drawn) [Example 355]", "Tb-labeled inactive PDGFRβ (Homo sapiens (Human), UniProt P09619)", "rule not met"),
    ("CNC(=O)c1cc(-c2cn3ncc(C(=O)Nc4cc(NC(=O)CN5CC(C)(C)C5)cnc4C)c3s2)ccn1 [Example 274]", "Tb-labeled inactive PDGFRβ (Homo sapiens (Human), UniProt P09619)", "rule not met"),
    ("Cc1ncc(NC(=O)CN2CCc3ncsc3C2)cc1NC(=O)c1cnn2cc(-c3cnn(C)c3)sc12 [Example 58]", "Tb-labeled inactive PDGFRβ (Homo sapiens (Human), UniProt P09619)", "rule not met"),
    ("Cc1ncc(C(=O)NCCN2CCCC2(C)C)cc1NC(=O)c1cnn2cc(-c3cncnc3)sc12 [Example 139]", "Tb-labeled inactive PDGFRβ (Homo sapiens (Human), UniProt P09619)", "rule not met"),
    ("Cc1ncc(NC(=O)OC[C@@H]2CCCN2C)cc1NC(=O)c1cnn2cc(-c3cccnc3O)sc12 [Example 256]", "Tb-labeled inactive PDGFRβ (Homo sapiens (Human), UniProt P09619)", "rule not met"),
    ("Cc1ncc(C(=O)NCCN2CC3CCC2CC3)cc1NC(=O)c1cnn2cc(-c3cnn(C4COC4)c3)sc12 [Example 144]", "Tb-labeled inactive PDGFRβ (Homo sapiens (Human), UniProt P09619)", "rule met"),
    ("Cc1ncc(NC(=O)CN2C[C@@H](C)O[C@H](C)C2)cc1NC(=O)c1cnn2cc(-c3cnn(CCS(C)(=O)=O)c3)sc12 (relative stereo) [Example 432]", "Tb-labeled inactive PDGFRβ (Homo sapiens (Human), UniProt P09619)", "rule met"),
    ("Cc1ncc(NC(=O)CNCC(C)C)cc1NC(=O)c1cnn2cc(-c3cnn4c3OCCC4)sc12 [Example 414]", "Tb-labeled inactive PDGFRβ (Homo sapiens (Human), UniProt P09619)", "rule met"),
]

Next up:
Record Cc1ncc(NC(=O)C2CCN(C(C)C)C2)cc1NC(=O)c1cnn2cc(-c3cnn(C)c3C)sc12 (stereo not drawn) [Example 356] : is its IC50 strictly below 10 nM?
rule not met

* * *

- TEST_TARGET: PDGFRβ (Rattus norvegicus (Rat))
- ASSAY_SUMMARY: PDGFRβ Cellular Assay (PDGFRb P-Y751 HTRF in A10 cells stimulated with PDGF-BB)
- Assay type: cell-based
- MEASUREMENT_SETUP: PDGFR Cellular IC50
Use IC50 to assign classes; range list: bin 0 = under 0.01 µM, bin 1 = from 0.01 µM up to 0.02 µM, bin 2 = 0.02 µM and over

Some solved entries appear below for comparison.
# COMPOUND, TEST_TARGET, CLASS_ASSIGNMENT
measured = [
    ("Cc1ncc(C(=O)NCCN2CC3CCC2CC3)cc1NC(=O)c1cnn2cc(-c3cnn(C(F)F)c3)sc12 [Example 180]", "PDGFRβ (Rattus norvegicus (Rat))", "bin 2"),
    ("Cc1ncc(NC(=O)C[C@H]2CCCN2C(C)C)cc1NC(=O)c1cnn2cc(-c3cnn4c3OCCC4)sc12 [Example 351]", "PDGFRβ (Rattus norvegicus (Rat))", "bin 1"),
    ("Cc1ncc(NC(=O)CN2CC(C)(C)C2)cc1NC(=O)c1cnn2cc(-c3c(C)nn(C4COC4)c3C)sc12 [Example 425]", "PDGFRβ (Rattus norvegicus (Rat))", "bin 1"),
    ("Cc1ncc(NC(=O)OC[C@H]2CCCN2C)cc1NC(=O)c1cnn2cc(-c3cnn(C)c3)sc12 [Example 244]", "PDGFRβ (Rattus norvegicus (Rat))", "bin 2"),
    ("COc1ncc(-c2cn3ncc(C(=O)Nc4cc(NC(=O)CN5CC(C)(C)C5)cnc4C)c3s2)c(OC)n1 [Example 392]", "PDGFRβ (Rattus norvegicus (Rat))", "bin 0"),
    ("COc1ncccc1-c1cn2ncc(C(=O)Nc3cc(NC(=O)CN4CCC4)cnc3C)c2s1 [Example 397]", "PDGFRβ (Rattus norvegicus (Rat))", "bin 0"),
    ("COc1ncccc1-c1cn2ncc(C(=O)Nc3cc(NC(=O)CN4CC(OC)C4)cnc3C)c2s1 [Example 400]", "PDGFRβ (Rattus norvegicus (Rat))", "bin 1"),
    ("Cc1ncc(C(=O)NCCN2CCCC2(C)C)cc1NC(=O)c1cnn2cc(-c3ccnc(N4CCOCC4)c3)sc12 [Example 483]", "PDGFRβ (Rattus norvegicus (Rat))", "bin 1"),
    ("COCCN(CCNC(=O)c1cnc(C)c(NC(=O)c2cnn3cc(-c4cnn(C)c4)sc23)c1)C(C)C [Example 127]", "PDGFRβ (Rattus norvegicus (Rat))", "bin 1"),
    ("Cc1ncc(NC(=O)CN2CCCC23CCC3)cc1NC(=O)c1cnn2cc(-c3cnn4c3COCC4)sc12 [Example 417]", "PDGFRβ (Rattus norvegicus (Rat))", "bin 0"),
]

Into which bin does this compound go? Cc1cc(C(=O)NCCN2CCCC23CCCC3)sc1NC(=O)c1cnn2cc(-c3cnn(C)c3)sc12 [Example 196]
bin 2

Into which bin does this compound go? Cc1ncc(NC(=O)OC[C@@H]2CCCN2C)cc1NC(=O)c1cnn2cc(-c3cccnc3O)sc12 [Example 256]
bin 2

Into which bin does this compound go? Cc1ncc(NC(=O)CN2CC(C)(C)C2)cc1NC(=O)c1cnn2cc(-c3ccn(S(C)(=O)=O)c3)sc12 [Example 275]
bin 0

Into which bin does this compound go? COCCn1cc(-c2cn3ncc(C(=O)Nc4cc(NC(=O)CN5C[C@H]6CC[C@@H]5C6)cnc4C)c3s2)cn1 [Example 334]
bin 1

Into which bin does this compound go? Cc1ncc(NC(=O)CN2CCCC[C@@H]2C)cc1NC(=O)c1cnn2cc(-c3cnn(CCO)c3)sc12 [Example 34]
bin 2
